- Tested on: Candida albicans
- assay: MIC against Candida albicans
- Assay type: cell-based
- settings: C. albicans NR 29449, unit from abstract, table prints none, read-out: MIC
outcome.measure: MIC

// query MIC value for entry `O=C(O)[C@H](Cc1ccccc1)N1C(=O)/C(=C/c2cccc(Cc3ccc(Cl)c(Cl)c3)c2)SC1=S`
> 64 µM

// query MIC value for entry `O=C(O)[C@H](Cc1ccccc1)N1C(=O)/C(=C/c2cccc(-c3ccccc3)c2)SC1=S`
> 64 µM

// query MIC value for entry `O=C(O)[C@@H](Cc1ccccc1)N1C(=O)/C(=C/c2cccc(Cc3ccccc3)c2)SC1=S`
> 64 µM

// query MIC value for entry `O=C(O)[C@H](Cc1ccccc1)N1C(=O)/C(=C/c2cccc(OC/C=C/c3ccc(Cl)c(Cl)c3)c2)SC1=S`
> 64 µM

// query MIC value for entry C[C@@H]1[C@H](O)[C@@H](C)/C=C/C=C/C=C/C=C/C=C/C=C/C=C/[C@H](O[C@@H]2O[C@H](C)[C@@H](O)[C@H](N)[C@@H]2O)C[C@@H]2O[C@](O)(C[C@@H](O)C[C@@H](O)[C@H](O)CC[C@@H](O)C[C@@H](O)CC(=O)O[C@H]1C)C[C@H](O)[C@H]2C(=O)O [Amphotericin B, amphotericin B, reference compound]
1 µM

// query MIC value for entry `O=C(O)[C@H](Cc1ccccc1)N1C(=O)/C(=C/c2cccc(-c3ccc(Cl)c(Cl)c3)c2)SC1=S`
> 64 µM

The measured values listed here are drawn from paper PMC5053523.
